Target: Recombinant (1-346) HPK1 (h) (Homo sapiens, UniProt Q92918)
Construct: Recombinant (1-346) HPK1 (h) is incubated with 8 mM MOPS pH 7.0
Sequence (Q92918 1-346): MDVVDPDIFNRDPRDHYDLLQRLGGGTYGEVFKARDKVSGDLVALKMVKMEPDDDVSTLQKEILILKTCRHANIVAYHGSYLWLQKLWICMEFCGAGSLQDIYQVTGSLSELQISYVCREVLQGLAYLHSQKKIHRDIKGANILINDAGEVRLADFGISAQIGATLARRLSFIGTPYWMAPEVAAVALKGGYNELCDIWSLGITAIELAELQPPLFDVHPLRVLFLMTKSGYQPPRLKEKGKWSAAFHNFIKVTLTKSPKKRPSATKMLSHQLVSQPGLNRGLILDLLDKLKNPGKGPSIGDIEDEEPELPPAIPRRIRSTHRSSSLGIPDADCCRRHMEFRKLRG
Test: HPK1 Human STE Kinase Enzymatic Radiometric Assay
Assay type: biochemical
Conditions: read-out: HPK1 IC50 nM Range*
Procedure: A stock solution of 10 mM of test compound is prepared in DMSO. The compound plate was prepared by 3-fold and 9-point serial dilutions. […] The reaction is initiated by The addition of the Mg/ATP mix. After incubation for 40 minutes at RT, the reaction is stopped by the addition of phosphoric acid to a concentration of 0.5%.
quantity_measured: IC50

[[record]]
compound = "COC1CN(Cc2cc(-c3cc(-c4ccc5c(c4)CCNC5=O)c(N)nc3F)ccc2N2CCOCC2)C1"
result = "11 to 100 nM"

[[record]]
compound = "CS(=O)(=O)N1CCC(Oc2ccc(-c3cc(-c4ccc5c(c4)CCNC5=O)c(N)nc3F)cc2)CC1"
result = "0.1 to 10 nM"

[[record]]
compound = "CCN(C)Cc1cc(-c2cc(-c3ccc4c(=O)[nH]cc(C)c4c3)c(N)nc2F)ccc1OC"
result = "11 to 100 nM"

[[record]]
compound = "CC1(C)CC(Oc2ccc(-c3cc(-c4ccc5c(c4)CCNC5=O)c(N)nc3F)cc2)CCN1 (centres unmarked)"
result = "0.1 to 10 nM"

[[record]]
compound = "CCN1CCC(c2ccc(-c3cc(-c4cc5c(cc4F)C(=O)NCC5)c(N)nc3F)cc2)CC1"
result = "0.1 to 10 nM"

[[record]]
compound = "CCN(C)Cc1nc(-c2cc(-c3ccc4c(c3)CCNC4=O)c(N)nc2F)ccc1C1CCOCC1"
result = "0.1 to 10 nM"

[[record]]
compound = "CC(C)N1CCOC(c2ccc(-c3cc(-c4ccc5c(c4)CCNC5=O)c(N)nc3F)cc2)C1 (centres unmarked)"
result = "0.1 to 10 nM"

[[record]]
compound = "Nc1nc(F)c(-c2ccc(N3CCOCC3)cc2)cc1-c1cc(F)c2c(=O)[nH]ccc2c1"
result = "0.1 to 10 nM"

[[record]]
compound = "Nc1nc(F)c(-c2ccc3c(c2)CCNC3)cc1-c1ccc2c(c1)CCNC2=O [I-255, 2,2,2-trifluoroacetate]"
result = "0.1 to 10 nM"

[[record]]
compound = "CN(C)Cc1cc(-c2cc(-c3ccc4c(=O)[nH]cc(F)c4c3)c(N)nc2F)ccc1C1CCOCC1"
result = "0.1 to 10 nM"

[[record]]
compound = "Nc1nc(F)c(-c2ccc(C3CCN(CC4CC4)CC3)cc2)cc1-c1cc(F)c2c(c1)CCNC2=O"
result = "0.1 to 10 nM"

[[record]]
compound = "CC(=O)N1CCN(c2ccc(-c3cc(-c4cc5c(cc4F)C(=O)NCC5)c(N)nc3F)cn2)CC1 [I-221, 2,2,2-trifluoroacetate]"
result = "11 to 100 nM"

[[record]]
compound = "CN1CCc2cc(-c3cc(-c4ccc5c(c4)CCNC5=O)c(N)nc3F)ccc2C1"
result = "11 to 100 nM"

[[record]]
compound = "CC(C)N1CCN(c2ccc(-c3cc(-c4cc(F)c5c(=O)[nH]cnc5c4)c(N)nc3F)cc2)CC1"
result = "0.1 to 10 nM"

[[record]]
compound = "C[Si](C)(O)c1ccc(-c2cc(-c3ccc4c(c3)CCNC4=O)c(N)nc2F)cc1"
result = "11 to 100 nM"

[[record]]
compound = "CO[C@@H](C)CN1CCN(c2ccc(-c3cc(-c4ccc5c(c4)CCNC5=O)c(N)nc3F)cc2)CC1"
result = "0.1 to 10 nM"

[[record]]
compound = "COC1CCN(Cc2cc(-c3cc(-c4ccc5c(c4)CCNC5=O)c(N)nc3F)ccc2OCCCC(F)F)CC1"
result = "11 to 100 nM"

[[record]]
compound = "CO[C@H]1CCN(Cc2cc(-c3cc(-c4ccc5c(c4)CCNC5=O)c(N)nc3F)ccc2N2CCOCC2)C1"
result = "0.1 to 10 nM"

[[record]]
compound = "CN(C)Cc1cc(-c2cc(-c3cc4c(cc3F)C(=O)NCC4)c(N)nc2F)ccc1F"
result = "11 to 100 nM"

[[record]]
compound = "COc1nc2cc(-c3cc(-c4ccc(N5CCN(C(C)C)CC5)cc4)c(F)nc3N)ccc2c(=O)[nH]1"
result = "11 to 100 nM"

[[record]]
compound = "CC(C)N1CCCCC1c1ccc(-c2cc(-c3ccc4c(c3)CCNC4=O)c(N)nc2F)cc1 (centres unmarked)"
result = "0.1 to 10 nM"

[[record]]
compound = "Nc1nc(F)c(-c2ccc(C3=CCN(CC(F)F)CC3)cc2)cc1-c1ccc2c(c1)CCNC2=O"
result = "0.1 to 10 nM"

[[record]]
compound = "CNCC1Cc2cc(-c3cc(-c4ccc(N5CCN(C(C)C)CC5)cc4)c(F)nc3N)ccc2C(=O)N1 (centres unmarked)"
result = "0.1 to 10 nM"

[[record]]
compound = "CC(=O)N1CC(Oc2ccc(-c3cc(-c4ccc5c(c4)CCNC5=O)c(N)nc3F)cc2)C1"
result = "0.1 to 10 nM"

[[record]]
compound = "CC(=O)N1CCC2(CC1)CC(=O)c1cc(-c3cc(-c4ccc5c(c4)CCNC5=O)c(N)nc3F)ccc1O2"
result = "0.1 to 10 nM"

[[record]]
compound = "CN1CCc2c(cccc2-c2cc(-c3ccc4c(c3)CCNC4=O)c(N)nc2F)C1"
result = "> 1000 nM"

[[record]]
compound = "CS(=O)(=O)[C@@H]1CCN(c2ccc(-c3cc(-c4ccc5c(c4)CCNC5=O)c(N)nc3F)cc2)C1"
result = "0.1 to 10 nM"

[[record]]
compound = "CN(CC(F)(F)F)C1CCN(c2ccc(-c3cc(-c4ccc5c(c4)CCNC5=O)c(N)nc3F)cc2)C1 (centres unmarked)"
result = "0.1 to 10 nM"

[[record]]
compound = "CC(C)N1CCN(c2ccc(-c3cc(-c4ccc5c(=O)[nH]ccc5c4)c(N)nc3F)cc2)CC1"
result = "0.1 to 10 nM"

[[record]]
compound = "Nc1nc(F)c(-c2ccc(N3CCN4CCCC4C3)cc2)cc1-c1ccc2c(c1)CCNC2=O (centres unmarked)"
result = "0.1 to 10 nM"

[[record]]
compound = "CC(C)N1CCN(c2ccc(-c3cc(-c4ccc5c(=O)[nH]cc(F)c5c4)c(N)nc3F)cc2)CC1"
result = "0.1 to 10 nM"

[[record]]
compound = "Nc1nc(F)c(-c2ccc(N3CCOCC3)c(CN3CCCC3)c2)cc1-c1cc2c(cc1F)C(=O)NCC2"
result = "11 to 100 nM"

